Each recorded value in this set is attributed to ChEMBL document CHEMBL5252551.

- experimental protocol: Half life in Sprague-Dawley rat at 10 mg/kg,po
- Assay type: ADME, organism-based
- measurement setup: in vivo
The following molecules are shown together with reported half-life values.
measurement name: half-life (h)

[[record]]
smiles_text = "C[C@@H](C(=O)O)c1ccc2c(c1)B(O)OC2"
unit_spec = "h"
value = 3.03

[[record]]
smiles_text = "CC(C)(c1ccc2c(c1)B(O)OC2)c1nnn[nH]1"
unit_spec = "h"
value = 1.53


###

- experimental protocol: Solubility of the compound in FaSSIF
- Type: ADME
Listing of recorded solubility by entry.
measurement name: solubility (µg/mL)

[[record]]
compound = "O=C(O)CCc1ccc2c(c1)B(O)OC2"
measurement_name = "solubility"
censoring_operator = ">"
value = 1000

[[record]]
compound = "CC(C)(c1ccc2c(c1)B(O)OC2)c1nnn[nH]1"
measurement_name = "solubility"
censoring_operator = "="
value = 930

[[record]]
compound = "OB1OCc2ccc(Oc3nnn[nH]3)cc21"
measurement_name = "solubility"
censoring_operator = ">"
value = 1000

[[record]]
compound = "O=C(Nc1cccn(Cc2ccccc2)c1=O)c1ccc2c(c1F)B(O)OC2"
measurement_name = "solubility"
censoring_operator = "="
value = 4

[[record]]
compound = "C[C@H](C(=O)O)c1ccc2c(c1)B(O)OC2"
measurement_name = "solubility"
censoring_operator = "="
value = 950

[[record]]
compound = "C[C@@H](C(=O)O)c1ccc2c(c1)B(O)OC2"
measurement_name = "solubility"
censoring_operator = ">"
value = 1000

[[record]]
compound = "CC(C)(C(=O)O)c1ccc2c(c1)B(O)OC2"
measurement_name = "solubility"
censoring_operator = ">"
value = 1000

[[record]]
compound = "O=C(Nc1cccn(Cc2ccccc2)c1=O)c1cc(F)c2c(c1)B(O)OC2"
measurement_name = "solubility"
censoring_operator = "="
value = 8

[[record]]
compound = "OB1OCc2ccc(OCc3nnn[nH]3)cc21"
measurement_name = "solubility"
censoring_operator = ">"
value = 1000

[[record]]
compound = "O=C(O)c1ccc2c(c1)B(O)OC2"
measurement_name = "solubility"
censoring_operator = "="
value = 950

[[record]]
compound = "O=C(O)c1ccn(-c2ccc3c(c2)B(O)OC3)c1"
measurement_name = "solubility"
censoring_operator = "="
value = 510

[[record]]
compound = "O=C(Cc1ccc2c(c1)B(O)OC2)NS(=O)(=O)c1ccccc1"
measurement_name = "solubility"
censoring_operator = "="
value = 900

[[record]]
compound = "O=C(NS(=O)(=O)c1ccc2c(c1)B(O)OC2)c1ccccc1"
measurement_name = "solubility"
censoring_operator = "="
value = 980

[[record]]
compound = "CCC(C(=O)O)c1ccc2c(c1)B(O)OC2 (racemic)"
measurement_name = "solubility"
censoring_operator = "="
value = 850

[[record]]
compound = "O=C(CCc1ccc2c(c1)B(O)OC2)NS(=O)(=O)c1ccccc1"
measurement_name = "solubility"
censoring_operator = ">"
value = 1000

[[record]]
compound = "O=C(O)c1cccn1-c1ccc2c(c1)B(O)OC2"
measurement_name = "solubility"
censoring_operator = ">"
value = 1000

[[record]]
compound = "CC(C)C(C(=O)O)c1ccc2c(c1)B(O)OC2 (racemic)"
measurement_name = "solubility"
censoring_operator = ">"
value = 1000

[[record]]
compound = "O=C(Cc1ccc2c(c1)B(O)OC2)NS(=O)(=O)C1CC1"
measurement_name = "solubility"
censoring_operator = "="
value = 700

[[record]]
compound = "CC(C(=O)O)c1ccc2c(c1)B(O)OC2 (racemic)"
measurement_name = "solubility"
censoring_operator = ">"
value = 1000

[[record]]
compound = "O=C(Nc1cccn(Cc2ccccc2)c1=O)c1ccc2c(c1)B(O)OC2"
measurement_name = "solubility"
censoring_operator = "="
value = 3

[[record]]
compound = "OB1OCc2ccc(Oc3nnn[nH]3)c(F)c21"
measurement_name = "solubility"
censoring_operator = ">"
value = 1000

[[record]]
compound = "CC(C(=O)NS(=O)(=O)C1CC1)c1ccc2c(c1)B(O)OC2 (racemic)"
measurement_name = "solubility"
censoring_operator = ">"
value = 1000

[[record]]
compound = "O=C(O)Cc1ccc2c(c1)B(O)OC2"
measurement_name = "solubility"
censoring_operator = ">"
value = 1000

[[record]]
compound = "OB1OCc2ccc(Cc3nnn[nH]3)cc21"
measurement_name = "solubility"
censoring_operator = ">"
value = 1000

[[record]]
compound = "O=C(Cc1ccc2c(c1)B(O)OC2)NS(=O)(=O)C1CCCC1"
measurement_name = "solubility"
censoring_operator = "="
value = 880

